test system: SH-SY5Y cells; experiment: Nuclear count from microscopy images (cellular growth and toxicity); settings: PKIS2 primary screening; note: reference of the scale not given here
Attribute Measured: Nuclear Count
Kindly provide the number alone.

See these solved cases before continuing.
[
  {
    "Compound": "COC(=O)Nc1nc2ccc(Oc3ccc(CC(=O)Nc4cc(C(F)(F)F)ccc4F)cc3)cc2[nH]1",
    "Nuclear Count": 109.57
  },
  {
    "Compound": "C[C@H]1CC[C@@H](C(=O)Nc2ccccc2)CN1c1cc(-c2ccc3c(N)n[nH]c3c2)nc(N)n1",
    "Nuclear Count": 95.91
  },
  {
    "Compound": "CC(C(=O)NC1CCN(c2ccnc(Nc3ccc(F)cc3)n2)C1)c1ccc(Cl)cc1 (stereo not shown)",
    "Nuclear Count": 84.41
  }
]

# input for lookup
Please look up its Nuclear Count: CCOc1nccc(-c2c(-c3ccc(F)cc3)ncn2C2CCNCC2)n1 [UNC10225194A] 127.90

====

system: SH-SY5Y cells; test: AK (adenylate kinase) release ToxiLight cytotoxicity assay; conditions: PKIS2 primary screening; note: reference of the scale not given here
Returns 1 if the recorded AK is greater than or equal to 100, and -1 otherwise.

[
  {
    "Compound": "COC(=O)C(Cc1ccccc1)NC(=O)NC1CCN(c2ccnc(Nc3ccc(F)cc3)n2)C1 (centres unmarked)",
    "Group Label": -1
  },
  {
    "Compound": "Cc1cc(-c2c(-c3ccc(F)cc3)ncn2CCCN2CCOCC2)nc(N)n1 [UNC10225357A]",
    "Group Label": 1
  },
  {
    "Compound": "COc1cc(Nc2nccc(-c3c(-c4cccc(NC(=O)c5c(F)cccc5F)c4)nn4ccccc34)n2)cc(OC)c1OC [UNC10225318A]",
    "Group Label": -1
  },
  {
    "Compound": "CNC(=O)c1ccccc1Nc1nc(Nc2cccc(CS(C)(=O)=O)c2)ncc1C",
    "Group Label": 1
  },
  {
    "Compound": "O=C(NCC1CC1)c1ccc(-c2cc(C(=O)NC3CC3)ccc2F)cc1 [UNC10224986A]",
    "Group Label": -1
  },
  {
    "Compound": "C[C@@H](Oc1cc(-n2cnc3ccc(-c4ccncc4)cc32)sc1C(N)=O)c1ccccc1Cl [UNC10225348A]",
    "Group Label": -1
  }
]

Assess whether reported AK for Fc1ccc(-c2nn3cccc(F)c3c2-c2ccncc2)cc1 [UNC10225116A] sits at 100 or higher. -1

====

system: SH-SY5Y cells; assay: AK (adenylate kinase) release ToxiLight cytotoxicity assay; settings: PKIS2 primary screening; note: reference of the scale not given here
Attribute Measured: AK
Format: numeric value only, no unit, no commentary.

These solved cases illustrate the format of a correct answer.
[
  {
    "Compound": "CSc1nn2c(=O)cc(N3CCOCC3)nc2n1Cc1cccc(Cl)c1Cl [UNC10225435A]",
    "AK": 85.33
  },
  {
    "Compound": "COc1cc(Nc2ccnc3ccc(C(F)(F)F)cc23)cc(OC)c1OC [UNC10225109A]",
    "AK": 98.24
  },
  {
    "Compound": "Nc1nc(-c2nccs2)c(-c2ccnc3ccccc23)s1 [UNC10225429A]",
    "AK": 94.26
  }
]

Reported AK for CNc1nc(-c2ccc3c(N)n[nH]c3c2)cc(N2C[C@@H](C(=O)NC3CCCCC3)OC[C@H]2C)n1 [GSK2375584] : what is it? 76.99

Look up AK: CCn1c(-c2ccccn2)nc2cnccc21 [UNC10225156A] 96.85

For the compound shown here, COC(=O)C(NC(=O)NC1CCN(c2ccnc(Nc3ccc(F)cc3)n2)C1)c1ccccc1 (centres unmarked) [GSK1379712] , give the reported AK. 111.30

# get_value(readout='AK', item= COc1ccc(CNC(=O)NC2CCN(c3ccnc(Nc4cc(OC)c(OC)c(OC)c4)n3)C2)cc1 (centres unmarked) [GSK1379748] ) 124.35

Any idea what its AK is? The compound is Nc1nc(N)c2nc(-c3ccccc3)[nH]c2n1 [UNC10225149A] 120.42

What value of AK has been recorded for this entry: CNc1nccc(-c2c(-c3ccc(F)cc3)ncn2C2CCN(C)CC2)n1 [UNC10225274A] 126.95

Which measured AK value corresponds to COc1cccc(CNC(=O)NC2CCN(c3ccnc(Nc4cc(OC)c(OC)c(OC)c4)n3)C2)c1 (centres unmarked) [GSK1379765] ? 74.87

AK lookup needed for CC(=O)c1cccc(NC(=O)NC2CCN(c3ccnc(Nc4ccc(F)cc4)n3)C2)c1 (centres unmarked) [GSK1379710] , thanks. 70.15

State the recorded AK for this entry: CN(c1ccc(NC(=O)Nc2cccc(Cl)c2)cc1)c1ccnc(N)n1 [GW830707] 94.92

Look up AK: O=c1cc(N2CCOCC2)nc2n(Cc3ccc(F)c(Cl)c3)ccn12 [UNC10225343A] 80.61

I'd like to know its AK. The compound in question is C[C@@H](Oc1cc(-n2cnc3cc(-c4ccnc(NCCS(C)(=O)=O)c4)ccc32)sc1C(N)=O)c1ccccc1Cl [UNC10225234A] 97.61

For the compound shown here, COc1cc(Nc2nccc(-c3c(-c4cccc(NC(=O)c5c(F)cccc5F)c4)nn4ncccc34)n2)cc(OC)c1OC [UNC10225433A] , give the reported AK. 102.19

Recorded AK for COc1cccc(CC(=O)N2CCc3cc(-c4cn(C)c5ncnc(N)c45)ccc32)c1 [UNC10224987A] , please? 97.56

Returns the measured AK for the input compound. Input: COC(=O)Nc1nc2ccc(Oc3ccc(NC(=O)Nc4cc(C(F)(F)F)ccc4F)cn3)cc2[nH]1 [GW681170] 96.18
